- EXPERIMENTAL SYSTEM: Mitogen-activated protein kinase 10 (Mus musculus)
- PROTOCOL SUMMARY: JNK3 AlphaScreen Assay (AID 530);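 note: kinase came from lysate of stimulated human HepG2 cells; signal reports phosphorylation of biotinylated GST-cJun 1-79 at Ser73 with 10 µM ATP; % is set by controls: 0 for no effect and ±100 for the full control effect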
- CONDITION: JNK3 lysate, c-Jun phosphorylation; series mostly up to 57.1 µM
Records with an inconclusive call do not appear. Activity calls are given as the source filed them. Calls come from the whole dose curve; as a rule, active = well fitted curve in either direction with a large enough effect (not every such curve was filed as active); inconclusive = small, poorly fitted or top-dose-only effect, or another doubt; inactive = flat fitted curve, though single readings scatter.
RECORDED ENDPOINT: activity change, negative = inhibition

These recorded examples may help you get a feel for the data.
>>> result("C=CCO")
"inactive"
>>> result("C=CCBr")
"inactive"
>>> result("Nc1c(Br)cc([N+](=O)[O-])cc1[N+](=O)[O-]")
"inactive"
>>> result("NCCCN1CCN(c2ccccc2)CC1")
"-2.39% [at 11.4 µM] (inactive)"
>>> result("C[C@]12CN(CC[N+](C)(C)C)C[C@]1(C)[C@@H]1CC[C@@H]2O1")
"-2.5% [at 11.4 µM] (inactive)"

Then this compound:
Q: Name the reported activity change, negative = inhibition value associated with the compound O=S(=O)(NCCO)c1cc[c]([Sb](=[O])([OH])[OH])cc1
A: 1.82% [at 11.4 µM] (inactive)

Attribution: PubChem BioAssay (NCATS)
